Assay: Intrinsic clearance in human liver microsomes
Settings: liver microsomes, CLH
In this section we review reported microsomal CLint values for a set of compounds.

// worked examples, microsomal CLint included
[[record]]
compound = "CN[C@@H](C)C(=O)N[C@H]1CCC[C@H]2C[C@H]3CCN(CCc4ccc(OC)cc4)C[C@H]3N2C1=O"
value = "< 4 µL/min/mg"

[[record]]
compound = "CN[C@@H](C)C(=O)N[C@H]1CCC[C@H]2C[C@H]3CCN(CCc4ccc([N+](=O)[O-])cc4)C[C@H]3N2C1=O"
value = "< 4 µL/min/mg"


Tell me microsomal CLint reported for CN[C@@H](C)C(=O)N[C@H]1CCC[C@H]2C[C@H]3CCN(CC(C)c4ccccc4)C[C@H]3N2C1=O (mixture of isomers) < 4 µL/min/mg

Provide measured microsomal CLint value, entry: CN[C@@H](C)C(=O)N[C@H]1CCC[C@H]2C[C@H]3CCN(CCc4ccccc4)C[C@H]3N2C1=O < 4 µL/min/mg

Note microsomal CLint for the compound shown: CN[C@@H](C)C(=O)N[C@H]1CCC[C@H]2C[C@H]3CCN(CCc4ccc(C)cc4)C[C@H]3N2C1=O < 4 µL/min/mg

Read off the recorded microsomal CLint for CN[C@@H](C)C(=O)N[C@H]1CCC[C@H]2C[C@H]3CCN(CCc4ccccc4F)C[C@H]3N2C1=O < 4 µL/min/mg

Output microsomal CLint of CN[C@@H](C)C(=O)N[C@H]1CCC[C@H]2C[C@H]3CCN(CCc4ccc(F)cc4)C[C@H]3N2C1=O < 4 µL/min/mg

Read the entry CN[C@@H](C)C(=O)N[C@H]1CCC[C@H]2C[C@H]3CCN(CCc4cccc(OC)c4)C[C@H]3N2C1=O and write its reported microsomal CLint. < 4 µL/min/mg

Please look at this compound and report its microsomal CLint: CN[C@@H](C)C(=O)N[C@H]1CCC[C@H]2C[C@H]3CCN(CCc4c[nH]c5ccccc45)C[C@H]3N2C1=O < 4 µL/min/mg

Supply reported microsomal CLint belonging to this compound: CN[C@@H](C)C(=O)N[C@H]1CCC[C@H]2C[C@H]3CCN(CCc4ccccc4OC)C[C@H]3N2C1=O < 4 µL/min/mg
